Data origin: ChEMBL document CHEMBL2074197

Give measured Km for each item. Keep answers brief.
Target: Solute carrier organic anion transporter family member 1A2 (OATP1A2) (Homo sapiens, UniProt P46721)
Assay: TP_TRANSPORTER: uptake in Xenopus laevis oocytes
Format: functional, cell-based, Oocyte
Conditions: Xenopus laevis oocytes expressing OATP1A2 (SLCO1A2)
Answers are plain numbers, in µM.

Hi team, please reply with Km for each item in this list.
1. C[C@H](CCC(=O)NCCS(=O)(=O)O)[C@H]1CC[C@H]2[C@@H]3[C@@H](O)C[C@@H]4C[C@H](O)CC[C@]4(C)[C@H]3CC[C@]12C
2. O=C1OC(c2ccc(O)c(S(=O)(=O)O)c2)(c2ccc(O)c(S(=O)(=O)O)c2)c2c(Br)c(Br)c(Br)c(Br)c21 [SULFOBROMOPHTHALEIN SODIUM]

Solution:
19
20

---

Molecular target: UniProt P46721
Experiment: TP_TRANSPORTER: inhibition of BSP uptake (BSP: 10 uM, ICG: 100 uM) in Xenopus laevis oocytes
Type: functional, cell-based, Oocyte
Parameters: scale not given: the % may be the effect or the level left
Conditions: Xenopus laevis oocytes expressing OATP1A2 (SLCO1A2), probe BSP (sulfobromophthalein), read-out: Activity
readout-label: activity at 100 µM (%)
Answers are plain numbers, in %.

Exercise: Fill in: activity at 100 µM on UniProt P46721, entry CC1(C)C(/C=C/C=C/C=C/C=C2\N(CCCCS(=O)(=O)O)c3ccc4ccccc4c3C2(C)C)=[N+](CCCCS(=O)(=O)[O-])c2ccc3ccccc3c21
Solution: 60

---

Molecular target: Solute carrier organic anion transporter family member 1A2 (OATP1A2) (Homo sapiens, UniProt P46721)
Sequence (P46721 whole entry): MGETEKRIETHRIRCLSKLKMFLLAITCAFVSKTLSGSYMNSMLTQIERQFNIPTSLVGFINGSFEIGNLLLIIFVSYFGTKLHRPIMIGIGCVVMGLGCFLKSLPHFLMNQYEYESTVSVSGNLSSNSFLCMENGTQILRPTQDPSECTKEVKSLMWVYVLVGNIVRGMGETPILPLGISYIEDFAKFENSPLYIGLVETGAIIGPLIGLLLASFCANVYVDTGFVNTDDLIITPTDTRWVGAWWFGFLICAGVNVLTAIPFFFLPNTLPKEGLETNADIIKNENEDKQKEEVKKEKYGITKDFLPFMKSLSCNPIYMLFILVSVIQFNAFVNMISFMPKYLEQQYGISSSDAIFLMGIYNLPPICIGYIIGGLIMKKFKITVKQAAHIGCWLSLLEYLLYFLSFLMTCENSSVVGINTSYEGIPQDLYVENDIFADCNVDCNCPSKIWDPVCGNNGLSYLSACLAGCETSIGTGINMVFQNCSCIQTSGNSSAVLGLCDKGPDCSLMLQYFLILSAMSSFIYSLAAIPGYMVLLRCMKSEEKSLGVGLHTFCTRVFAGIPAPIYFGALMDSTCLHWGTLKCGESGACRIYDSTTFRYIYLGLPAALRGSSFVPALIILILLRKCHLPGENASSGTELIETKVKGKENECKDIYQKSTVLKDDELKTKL
Assay: TP_TRANSPORTER: inhibition of Taurocholate uptake (Taurochorate: 10 uM, TCDC: 100 uM) in Xenopus laevis oocytes
Type: functional, cell-based, Oocyte
Design: scale not given: the % may be the effect or the level left
Conditions: Xenopus laevis oocytes expressing OATP1A2 (SLCO1A2), probe taurocholate, read-out: Activity
readout-label: activity at 100 µM (%)
One number for each entry, in %.

Exercise: Report measured activity at 100 µM; entry is C[C@H](CCC(=O)NCCS(=O)(=O)O)[C@H]1CC[C@H]2[C@@H]3[C@H](O)C[C@@H]4C[C@H](O)CC[C@]4(C)[C@H]3CC[C@]12C [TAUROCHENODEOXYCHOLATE]
Solution: 28
